Reference source for all entries: patent US5593988A

Test system: bone resorption (parietal bone)
Assay: Bone resorption-inhibitory activity (45Ca release from newborn mouse parietal bone, hPTH (1-34) stimulated, method of Raisz)
Assay type: cell-based, ICR mouse
Settings: read-out: bone resorption-inhibitory action, % against control
Description: The method for determining the bone resorption-inhibitory activity of the Compound (I) and the results are shown in the following. Bone resorption-inhibitory activity […] Using the bone obtained from the same mouse and treated in the same manner without the test compound as a control, the ratio (%) against the control was calculated according to the following equation. […] The average of these values obtained from four pairs from each group was calculated.
measurement type: inhibition at 20 µM (%)
Give your result in % as a bare value.

Guide cases for inhibition at 20 µM, answers given:
{"molecule": "CC(C)Cc1ccc(CCc2cc3c(s2)-n2cnnc2CN=C3c2ccccc2Cl)cc1", "endpoint value": 30.2}
{"molecule": "Cc1nnc2n1-c1sc(CCc3ccc(CC(C)C)cc3)cc1C(c1ccccc1)=NC2", "endpoint value": 30.7}
{"molecule": "Cc1nnc2n1-c1sc3c(c1C(c1ccccc1Cl)=N[C@H]2C)CCN(C(=O)C1CC1)C3", "endpoint value": 29.9}
{"molecule": "CCCCCCCCCCc1ccc2c(c1)-n1c(C)nnc1C(C)N=C2c1ccccc1 (stereo not drawn)", "endpoint value": 22.5}
{"molecule": "CCCCCCCCc1cc2c(s1)N(CCN(C)C)C(=O)CN=C2c1ccccc1Cl", "endpoint value": 27.4}

Proceeding to the next molecule to report its inhibition at 20 µM.
IN: Entry Cc1nnc2n1-c1sc(CCC(=O)N3CCOCC3)cc1C(c1ccccc1Cl)=NC2C (stereo not drawn) : reported inhibition at 20 µM = ?
OUT: 46

====

System: bone resorption (parietal bone)
Assay: Bone resorption-inhibitory activity (45Ca release from newborn mouse parietal bone, hPTH (1-34) stimulated, method of Raisz)
Assay type: cell-based, ICR mouse
Conditions: read-out: bone resorption-inhibitory action, % against control
We use 30% as the dividing line for inhibition at 20 µM: on or above the line is MET, below is NOT MET.

{"compound": "COc1ccccc1NC(=O)NC1N=C(c2ccc(Cl)cc2)c2ccccc2-n2c(C)nnc21 (stereo not shown) [compound 502]", "label class": "MET"}

IN: In plain terms: is recorded inhibition at 20 µM at least 30% for COc1ccccc1NC(=O)NCC1N=C(c2ccc(Cl)cc2)c2ccccc2-n2c(C)nnc21 (stereo not shown) [compound 505] ?
OUT: MET

IN: In plain terms: is recorded inhibition at 20 µM at least 30% for Cc1ccc(S(=O)(=O)OCC2N=C(c3ccccc3)c3ccccc3-n3c(C)nnc32)cc1 (stereo not shown) [compound 518] ?
OUT: MET

IN: In plain terms: is recorded inhibition at 20 µM at least 30% for Cc1nnc2n1-c1sc(CCc3ccc(CC(C)C)cc3)cc1C(c1ccccc1F)=NC2 [compound 30] ?
OUT: NOT MET

IN: In plain terms: is recorded inhibition at 20 µM at least 30% for COc1ccccc1NC(=O)NC1N=C(c2ccccc2)c2cc(Cl)ccc2-n2c(C)nnc21 (stereo not shown) [compound 532] ?
OUT: NOT MET

IN: In plain terms: is recorded inhibition at 20 µM at least 30% for CCCCCCCCCCCc1nnc2n1-c1ccccc1C(c1ccc(Cl)cc1)=NC2 [compound 513] ?
OUT: MET

IN: In plain terms: is recorded inhibition at 20 µM at least 30% for CC(C)Cc1ccc(CCc2nnc3n2-c2ccccc2C(c2ccc(Cl)cc2)=NC3)cc1 [compound 517] ?
OUT: MET

IN: In plain terms: is recorded inhibition at 20 µM at least 30% for CCCCCCCCCCc1cc2c(s1)-n1c(C)nnc1CN=C2c1ccccc1OC [compound 25] ?
OUT: NOT MET

IN: In plain terms: is recorded inhibition at 20 µM at least 30% for CCCCCCc1cc2c(s1)-n1c(C)nnc1CN=C2c1ccccc1C [compound 22] ?
OUT: NOT MET

IN: In plain terms: is recorded inhibition at 20 µM at least 30% for CCCCCCCCCCCCc1cc2c(s1)-n1c(C)nnc1CN=C2c1ccccc1Cl [compound 27] ?
OUT: NOT MET

IN: In plain terms: is recorded inhibition at 20 µM at least 30% for Cc1nnc2n1-c1sc(CCC(=O)N3CCOCC3)cc1C(c1ccccc1Cl)=NC2 [compound 19] ?
OUT: MET

IN: In plain terms: is recorded inhibition at 20 µM at least 30% for CCCCCCc1cc2c(s1)NC(=O)CN=C2c1ccccc1Cl [compound 60] ?
OUT: MET

IN: In plain terms: is recorded inhibition at 20 µM at least 30% for Cc1nnc2n1-c1ccccc1C(c1ccc(Cl)cc1)=NC2NS(=O)(=O)Cc1ccccc1 (stereo not shown) [compound 507] ?
OUT: MET

====

Tested on: bone resorption (parietal bone)
Assay: Bone resorption-inhibitory activity (45Ca release from newborn mouse parietal bone, hPTH (1-34) stimulated, method of Raisz)
Assay type: cell-based, ICR mouse
Details: read-out: bone resorption-inhibitory action, % against control
measurement type: inhibition at 20 µM (%)
Give your result in % as a bare value.

Guide cases for inhibition at 20 µM, answers given:
{"compound": "CCOC(=O)C1(NC(=O)Nc2cccc(C)c2)N=C(c2ccc(Cl)cc2)c2ccccc2-n2c(C)nnc21 (stereo not drawn)", "units label": "%", "inhibition at 20 µM": 29.5}
{"compound": "Cc1cccc(NC(=O)NC2N=C(c3ccc(Cl)cc3)c3ccccc3-n3c(C)nnc32)c1 (stereo not drawn)", "units label": "%", "inhibition at 20 µM": 30.4}

IN: Entry Cc1cccc(NC(=O)NC2N=C(c3cccs3)c3ccccc3-n3c(C)nnc32)c1 (stereo not drawn) : reported inhibition at 20 µM = ?
OUT: 29.6
